Hello, the source for this data is patent US10246453B2, in case you need it.

# subject.of.test: NaV1.5 (Homo sapiens (Human))
# test.summary: Sodium Influx Assay (Flux), NaV1.5
# run.parameters: read-out: Flux NaV1.5 IC50; Trex HEK293 cells, ANG2 dye; arithmetic mean
Label label 1 when IC50 is strictly below 20 µM; otherwise label label 0.

compound: CC(C)Oc1cccc(CN2CC[C@H](N(C)c3cc(F)c(S(=O)(=O)Nc4cscn4)cc3Cl)C2)c1
subject.of.test: NaV1.5 (Homo sapiens (Human))
class: label 1
--
compound: CC1(Nc2ccc(S(=O)(=O)Nc3nccs3)cc2Cl)CN(Cc2ccccc2)C1 [Example 25, 2,2,2-trifluoroacetate]
subject.of.test: NaV1.5 (Homo sapiens (Human))
class: label 0
--
compound: O=S(=O)(Nc1nccs1)c1ccc(OC2CCN(C3CCCCC3)CC2)c(Cl)c1 [Example 7, 2,2,2-trifluoroacetate]
subject.of.test: NaV1.5 (Homo sapiens (Human))
class: label 0
--
compound: CC[C@@H](c1ccccc1Cl)N1CC[C@H](N(C)c2cc(F)c(S(=O)(=O)Nc3cscn3)cc2Cl)C1 [Example 248, 2,2,2-trifluoroacetate]
subject.of.test: NaV1.5 (Homo sapiens (Human))
class: label 1
--
compound: Cc1cc(S(=O)(=O)Nc2ccc(F)cn2)c(F)cc1N(C)[C@H]1CCN(Cc2ccccc2)C1
subject.of.test: NaV1.5 (Homo sapiens (Human))
class: label 1
--
compound: CC(c1ccccc1)N1CCC(Oc2cc(F)c(S(=O)(=O)Nc3nccs3)cc2Cl)CC1 (stereo not shown)
subject.of.test: NaV1.5 (Homo sapiens (Human))
class: label 1
--
compound: O=S(=O)(Nc1nccs1)c1ccc(OC2CCN(Cc3cccc(C(F)F)c3)CC2)c(Cl)c1
subject.of.test: NaV1.5 (Homo sapiens (Human))
class: label 1

====

# subject.of.test: NaV1.1 (Homo sapiens (Human))
# test.summary: Sodium Influx Assay (Flux), NaV1.1
# Assay type: cell-based
# run.parameters: Trex HEK293 cells, ANG2 dye; arithmetic mean
Where a name gives a salt, the structure may show the parent alone.

compound: Cc1c(O[C@H]2CCN(Cc3ccccc3)C2)cc(F)c(S(=O)(=O)Nc2cscn2)c1F [Example 269, hydrochloride]
relational.operator: >
IC50, µM: 30
//
compound: O=S(=O)(Nc1nccs1)c1cc(Cl)c(N[C@@H]2CCN(Cc3ccccc3)C2)cc1F [Example 89]
relational.operator: =
IC50, µM: 2.13
//
compound: CN(c1cc(F)c(S(=O)(=O)Nc2cscn2)cc1Cl)[C@H]1CCN(Cc2nc(C(F)F)ccc2F)C1 [Example 163, formate]
relational.operator: >
IC50, µM: 30
//
compound: COc1cccc(CN2CCC(Oc3ccc(S(=O)(=O)Nc4nccs4)cc3Cl)CC2)c1 [Example 84]
relational.operator: =
IC50, µM: 6
//
compound: Cc1ccc(CN2CC[C@H](N(C)c3cc(F)c(S(=O)(=O)Nc4cscn4)cc3Cl)C2)cc1 [Example 201]
relational.operator: =
IC50, µM: 5.74
//
compound: Cc1cc(S(=O)(=O)Nc2cscn2)c(F)cc1OC1CCN(Cc2ccccc2)CC1 [Example 239]
relational.operator: =
IC50, µM: 27
//
compound: Cc1c(OC2CCN([C@H](C)c3ccccc3)CC2)cc(F)c(S(=O)(=O)Nc2cscn2)c1F [Example 282, 2,2,2-trifluoroacetate]
relational.operator: =
IC50, µM: 17.3

====

# subject.of.test: NaV1.6 (Homo sapiens (Human))
# Sequence (Q9UQD0 whole entry): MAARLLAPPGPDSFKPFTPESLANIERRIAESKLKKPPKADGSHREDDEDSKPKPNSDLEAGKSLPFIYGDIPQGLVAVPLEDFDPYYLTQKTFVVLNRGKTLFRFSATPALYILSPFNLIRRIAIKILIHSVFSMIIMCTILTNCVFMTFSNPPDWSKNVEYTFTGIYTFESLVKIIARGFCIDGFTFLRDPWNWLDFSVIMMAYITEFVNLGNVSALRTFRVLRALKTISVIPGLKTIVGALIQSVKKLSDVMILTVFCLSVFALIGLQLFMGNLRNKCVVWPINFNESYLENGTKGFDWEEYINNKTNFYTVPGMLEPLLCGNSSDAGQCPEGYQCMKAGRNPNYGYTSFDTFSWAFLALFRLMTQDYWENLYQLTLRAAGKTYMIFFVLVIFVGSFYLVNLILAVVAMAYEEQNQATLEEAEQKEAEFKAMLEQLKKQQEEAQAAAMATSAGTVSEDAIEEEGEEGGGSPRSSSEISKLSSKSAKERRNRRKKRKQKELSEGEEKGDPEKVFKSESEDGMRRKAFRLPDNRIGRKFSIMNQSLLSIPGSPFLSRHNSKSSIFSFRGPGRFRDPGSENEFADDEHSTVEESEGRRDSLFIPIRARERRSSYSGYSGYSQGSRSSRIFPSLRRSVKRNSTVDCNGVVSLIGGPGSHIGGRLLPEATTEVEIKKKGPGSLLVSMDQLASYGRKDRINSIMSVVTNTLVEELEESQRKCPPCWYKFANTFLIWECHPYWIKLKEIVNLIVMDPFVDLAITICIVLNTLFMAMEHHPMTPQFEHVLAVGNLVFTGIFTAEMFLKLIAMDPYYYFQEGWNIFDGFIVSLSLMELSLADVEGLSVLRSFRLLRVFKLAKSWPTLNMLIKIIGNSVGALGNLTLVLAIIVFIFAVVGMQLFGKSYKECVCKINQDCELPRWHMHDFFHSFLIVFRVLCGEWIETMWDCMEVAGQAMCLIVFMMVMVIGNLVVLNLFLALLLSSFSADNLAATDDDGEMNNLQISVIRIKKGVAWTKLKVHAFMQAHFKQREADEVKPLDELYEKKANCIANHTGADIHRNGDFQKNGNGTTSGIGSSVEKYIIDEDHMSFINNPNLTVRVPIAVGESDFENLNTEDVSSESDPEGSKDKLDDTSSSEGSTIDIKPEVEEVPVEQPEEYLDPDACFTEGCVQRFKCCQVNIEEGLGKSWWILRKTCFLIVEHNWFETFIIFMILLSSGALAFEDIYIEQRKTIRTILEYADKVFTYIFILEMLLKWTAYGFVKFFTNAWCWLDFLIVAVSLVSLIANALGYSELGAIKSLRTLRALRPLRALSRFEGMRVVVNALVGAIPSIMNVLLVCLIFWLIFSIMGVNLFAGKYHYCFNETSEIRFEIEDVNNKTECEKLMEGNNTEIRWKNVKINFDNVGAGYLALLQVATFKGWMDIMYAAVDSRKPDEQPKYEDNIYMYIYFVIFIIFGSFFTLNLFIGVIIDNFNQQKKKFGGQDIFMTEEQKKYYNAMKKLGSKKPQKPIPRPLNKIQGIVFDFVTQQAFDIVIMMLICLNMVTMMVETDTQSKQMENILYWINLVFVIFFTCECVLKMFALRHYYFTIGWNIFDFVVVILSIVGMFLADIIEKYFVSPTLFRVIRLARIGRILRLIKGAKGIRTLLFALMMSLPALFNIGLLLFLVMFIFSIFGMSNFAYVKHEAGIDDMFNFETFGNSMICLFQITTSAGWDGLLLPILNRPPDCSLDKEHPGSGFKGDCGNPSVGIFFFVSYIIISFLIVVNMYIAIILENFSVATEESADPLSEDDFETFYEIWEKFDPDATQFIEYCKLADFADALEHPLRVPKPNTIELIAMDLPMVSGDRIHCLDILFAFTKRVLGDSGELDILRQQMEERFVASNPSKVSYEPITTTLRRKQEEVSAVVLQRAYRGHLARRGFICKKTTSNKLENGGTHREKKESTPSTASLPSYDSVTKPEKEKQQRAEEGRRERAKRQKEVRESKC
# test.summary: Electrophysiological Assay (EP), patch voltage clamp, NaV1.6
# Format: cell-based
# run.parameters: HEK-293 cells, whole-cell patch clamp, inactivated state; arithmetic mean
pIC50: −log10 of the molar value. Structures can show the parent of a compound that is named as a salt.
pIC50 values for the compounds below.
reported.metric: pIC50

compound: O=S(=O)(Nc1ncns1)c1ccc(O[C@H]2CCN(Cc3ccccc3)C2)c(Cl)c1 [Example 97, 2,2,2-trifluoroacetate]
numeric.readout: 5.53
--
compound: O=S(=O)(Nc1cscn1)c1ccc(O[C@@H]2C[C@H]3CC[C@@H](C2)N3Cc2ccccc2)c(Cl)c1
numeric.readout: 5.94
--
compound: CN(c1cc(F)c(S(=O)(=O)Nc2cscn2)cc1Cl)[C@H]1CCN(Cc2cccc(C(F)F)c2)C1
numeric.readout: 6.48
--
compound: C[C@@H](c1ccccc1)N1CCC(Oc2ccc(S(=O)(=O)Nc3ncns3)cc2Cl)CC1 [Example 221, 2,2,2-trifluoroacetate]
numeric.readout: 7.01
--
compound: C[C@H](c1ccccc1)N1CC[C@H](N(C)c2ccc(S(=O)(=O)Nc3nccs3)cc2Cl)C1
numeric.readout: 7.05
--
compound: Cc1cc(S(=O)(=O)Nc2ccsn2)c(F)cc1N(C)[C@H]1CCN(Cc2ccccc2)C1 [Example 277, 2,2,2-trifluoroacetate]
numeric.readout: 7.57
--
compound: C[C@H](c1ccccc1)N1CCC(Oc2cc(F)c(S(=O)(=O)Nc3cscn3)c(F)c2)CC1 [Example 291, 2,2,2-trifluoroacetate]
numeric.readout: 6.35
--
compound: C[C@H](c1ccccc1)N1CCC(Oc2ccc(S(=O)(=O)Nc3ccncn3)cc2Cl)CC1
numeric.readout: 6.01
--
compound: CN(c1cc(F)c(S(=O)(=O)Nc2cscn2)cc1Cl)[C@H]1CCN(C(C)(C)c2ccccc2)C1 [Example 257, formate]
numeric.readout: 6.77
--
compound: CN(c1cc(F)c(S(=O)(=O)Nc2cscn2)c(F)c1Cl)[C@H]1CCN(Cc2ccccc2)C1 [Example 102, formate]
numeric.readout: 6.82
--
compound: Cc1c(N(C)[C@H]2CCN(Cc3ccccc3)C2)cc(F)c(S(=O)(=O)Nc2ccsn2)c1F [Example 279, 2,2,2-trifluoroacetate]
numeric.readout: 7.96
--
compound: Cc1cccc(CN2CC[C@H](N(C)c3cc(F)c(S(=O)(=O)Nc4cscn4)c(F)c3Cl)C2)n1
numeric.readout: 7.18
--
compound: CN(c1cc(F)c(S(=O)(=O)Nc2cscn2)cc1Cl)[C@H]1CCN(Cc2ccccc2)C1 [Example 38, 2,2,2-trifluoroacetate]
numeric.readout: 6.10
--
compound: CC1(Nc2ccc(S(=O)(=O)Nc3nccs3)cc2Cl)CCN(Cc2ccccc2)C1 (stereo not shown)
numeric.readout: 6.86
--
compound: CC(C)(c1ccccc1)N1CCC(Oc2ccc(S(=O)(=O)Nc3nccs3)cc2Cl)CC1 [Example 59, 2,2,2-trifluoroacetate]
numeric.readout: 7.04
--
compound: CN(c1cc(F)c(S(=O)(=O)Nc2cscn2)cc1Cl)[C@H]1CCN([C@@H]2CCc3ccccc32)C1 [Example 246, 2,2,2-trifluoroacetate]
numeric.readout: 5.99
--
compound: Cc1cccc(CN2CC[C@H](N(C)c3cc(F)c(S(=O)(=O)Nc4ncns4)c(F)c3C)C2)n1 [Example 296, 2,2,2-trifluoroacetate]
numeric.readout: 8.70
--
compound: CCN(c1ccc(S(=O)(=O)Nc2ncns2)cc1Cl)[C@H]1CCN(Cc2ccccc2)C1
numeric.readout: 6.16
--
compound: CN(c1ccc(S(=O)(=O)Nc2ncns2)cc1Cl)[C@H]1CCN(Cc2ccccc2)C1 [Example 29, hydrochloride salt]
numeric.readout: 7.22

====

# subject.of.test: NaV1.1 (Homo sapiens (Human))
# test.summary: Sodium Influx Assay (Flux), NaV1.1
# Type: cell-based
# run.parameters: Trex HEK293 cells, ANG2 dye; arithmetic mean
Structures can show the parent of a compound that is named as a salt.
Label 1.0 when IC50 is strictly below 8 µM; otherwise label 0.0.

compound: COc1cccc(CN2CC[C@H](N(C)c3cc(F)c(S(=O)(=O)Nc4cscn4)cc3Cl)C2)c1
class: 1.0
//
compound: CC[C@@H](c1ccccc1)N1CC[C@H](N(C)c2cc(F)c(S(=O)(=O)Nc3cscn3)cc2Cl)C1
class: 1.0
//
compound: O=S(=O)(Nc1ncns1)c1ccc(OC2CCN(Cc3ccccc3)CC2)c(Cl)c1 [Example 100, 2,2,2-trifluoroacetate]
class: 0.0
//
compound: O=S(=O)(Nc1nccs1)c1ccc(OC2CCN(Cc3ccccc3F)CC2)c(Cl)c1
class: 0.0
//
compound: Cc1cc(S(=O)(=O)Nc2cscn2)c(F)cc1O[C@@]1(C)CCN(Cc2ccccc2)C1 [Example 159, formate]
class: 0.0
//
compound: Cc1c(N(C)[C@H]2CCN(Cc3ccccc3)C2)cc(F)c(S(=O)(=O)Nc2ccc(F)cn2)c1F [Example 302, formate]
class: 0.0
//
compound: Cc1nc(CN2CC[C@H](N(C)c3cc(F)c(S(=O)(=O)Nc4cscn4)cc3C)C2)c(C(F)(F)F)o1 [Example 154, 2,2,2-trifluoroacetate]
class: 0.0

====

IC50 values for the compounds below.
# subject.of.test: NaV1.5 (Homo sapiens (Human), UniProt Q14524)
# Sequence (Q14524 other isoform, or with tags, fused parts or gaps): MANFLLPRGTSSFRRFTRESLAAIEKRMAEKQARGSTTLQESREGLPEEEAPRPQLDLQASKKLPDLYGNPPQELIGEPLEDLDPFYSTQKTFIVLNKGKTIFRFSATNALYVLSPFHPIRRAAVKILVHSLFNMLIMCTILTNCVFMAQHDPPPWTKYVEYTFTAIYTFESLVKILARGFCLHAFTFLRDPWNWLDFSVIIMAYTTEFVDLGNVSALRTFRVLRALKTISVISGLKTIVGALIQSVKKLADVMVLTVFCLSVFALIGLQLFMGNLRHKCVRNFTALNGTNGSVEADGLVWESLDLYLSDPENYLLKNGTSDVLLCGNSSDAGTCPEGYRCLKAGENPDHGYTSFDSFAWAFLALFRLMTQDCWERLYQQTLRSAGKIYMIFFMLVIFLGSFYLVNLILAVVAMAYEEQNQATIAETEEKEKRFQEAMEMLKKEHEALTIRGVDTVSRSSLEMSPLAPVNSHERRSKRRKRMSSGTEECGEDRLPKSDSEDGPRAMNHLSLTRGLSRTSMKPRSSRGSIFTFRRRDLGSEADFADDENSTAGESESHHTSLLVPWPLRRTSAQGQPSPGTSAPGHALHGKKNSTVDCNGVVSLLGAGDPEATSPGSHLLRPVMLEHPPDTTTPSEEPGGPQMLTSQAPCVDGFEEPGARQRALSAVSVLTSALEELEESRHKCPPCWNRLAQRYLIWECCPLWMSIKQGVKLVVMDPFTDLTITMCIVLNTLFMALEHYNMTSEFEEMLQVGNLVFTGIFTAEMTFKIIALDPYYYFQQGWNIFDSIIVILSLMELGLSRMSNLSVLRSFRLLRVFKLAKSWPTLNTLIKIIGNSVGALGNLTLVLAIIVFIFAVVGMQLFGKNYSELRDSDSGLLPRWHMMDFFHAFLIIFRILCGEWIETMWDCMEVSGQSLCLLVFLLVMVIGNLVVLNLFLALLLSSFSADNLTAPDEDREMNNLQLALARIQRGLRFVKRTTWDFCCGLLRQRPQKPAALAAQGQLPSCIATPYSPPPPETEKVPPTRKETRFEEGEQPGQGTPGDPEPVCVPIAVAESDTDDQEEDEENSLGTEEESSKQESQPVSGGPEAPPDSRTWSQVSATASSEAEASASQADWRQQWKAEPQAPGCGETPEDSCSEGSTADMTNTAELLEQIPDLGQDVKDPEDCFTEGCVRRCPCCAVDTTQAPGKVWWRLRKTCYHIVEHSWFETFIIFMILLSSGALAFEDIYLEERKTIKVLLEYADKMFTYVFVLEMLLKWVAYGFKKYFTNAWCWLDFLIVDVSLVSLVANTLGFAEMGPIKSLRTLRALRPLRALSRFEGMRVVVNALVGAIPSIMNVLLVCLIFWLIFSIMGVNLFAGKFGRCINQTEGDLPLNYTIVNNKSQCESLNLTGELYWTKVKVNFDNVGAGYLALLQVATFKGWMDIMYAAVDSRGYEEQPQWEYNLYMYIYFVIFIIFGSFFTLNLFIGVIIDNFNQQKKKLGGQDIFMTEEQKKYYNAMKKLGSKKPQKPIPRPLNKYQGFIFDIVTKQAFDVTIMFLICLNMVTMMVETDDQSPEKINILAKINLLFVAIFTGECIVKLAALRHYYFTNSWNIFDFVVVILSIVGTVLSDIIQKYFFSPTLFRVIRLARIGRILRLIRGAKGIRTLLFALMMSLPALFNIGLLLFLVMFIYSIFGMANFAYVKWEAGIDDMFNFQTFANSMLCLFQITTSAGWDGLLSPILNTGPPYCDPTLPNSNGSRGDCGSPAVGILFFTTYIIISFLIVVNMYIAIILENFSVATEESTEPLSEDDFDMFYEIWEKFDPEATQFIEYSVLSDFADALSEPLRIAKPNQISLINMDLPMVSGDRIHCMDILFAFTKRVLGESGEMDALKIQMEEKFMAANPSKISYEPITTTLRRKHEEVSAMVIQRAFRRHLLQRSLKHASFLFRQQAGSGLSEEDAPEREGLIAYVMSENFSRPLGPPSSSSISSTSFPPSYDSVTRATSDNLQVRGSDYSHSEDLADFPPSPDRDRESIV
# test.summary: Sodium Influx Assay (Flux), NaV1.5
# run.parameters: read-out: Flux NaV1.5 IC50; Trex HEK293 cells, ANG2 dye; arithmetic mean
reported.metric: IC50 (µM)

compound: CN(c1cc(F)c(S(=O)(=O)Nc2cscn2)cc1Cl)[C@H]1CCN(Cc2cccc3ccncc23)C1 [Example 186, 2,2,2-trifluoroacetate]
reported.metric: IC50
unit.info: µM
relational.operator: =
numeric.readout: 20.1
--
compound: CN(c1cc(F)c(S(=O)(=O)Nc2cscn2)cc1Cl)[C@H]1CCN(Cc2ccn(C)n2)C1
reported.metric: IC50
unit.info: µM
relational.operator: >
numeric.readout: 30
--
compound: O=S(=O)(Nc1nccs1)c1ccc(O[C@H]2C[C@H]3CC[C@@H](C2)N3Cc2ccccc2)c(Cl)c1
reported.metric: IC50
unit.info: µM
relational.operator: =
numeric.readout: 23.9
--
compound: Cc1cc(S(=O)(=O)Nc2cscn2)c(F)cc1N(C)[C@H]1CCN(Cc2cocn2)C1
reported.metric: IC50
unit.info: µM
relational.operator: >
numeric.readout: 30
--
compound: O=S(=O)(Nc1nccs1)c1ccc(OC2CCN(Cc3ccc(F)cc3)CC2)c(Cl)c1 [Example 22, 2,2,2-trifluoroacetate]
reported.metric: IC50
unit.info: µM
relational.operator: =
numeric.readout: 16.1
--
compound: CN(c1ccc(S(=O)(=O)Nc2ncns2)cc1Cl)[C@@H]1CCN(Cc2ccccc2)C1 [Example 68, 2,2,2-trifluoroacetate]
reported.metric: IC50
unit.info: µM
relational.operator: >
numeric.readout: 30
--
compound: O=S(=O)(Nc1nccs1)c1cc(Cl)c(N[C@H]2CCN(Cc3ccccc3)C2)cc1F
reported.metric: IC50
unit.info: µM
relational.operator: =
numeric.readout: 14.3
